Biological target: HER2 wildtype (WT) protein (Homo sapiens, UniProt P04626)
Construct: BT474 and N87 cell lines which endogenously overexpress the HER2 wildtype (WT) protein; endogenous in cells; host or cells: BT474, N87
Sequence (P04626 23-1255): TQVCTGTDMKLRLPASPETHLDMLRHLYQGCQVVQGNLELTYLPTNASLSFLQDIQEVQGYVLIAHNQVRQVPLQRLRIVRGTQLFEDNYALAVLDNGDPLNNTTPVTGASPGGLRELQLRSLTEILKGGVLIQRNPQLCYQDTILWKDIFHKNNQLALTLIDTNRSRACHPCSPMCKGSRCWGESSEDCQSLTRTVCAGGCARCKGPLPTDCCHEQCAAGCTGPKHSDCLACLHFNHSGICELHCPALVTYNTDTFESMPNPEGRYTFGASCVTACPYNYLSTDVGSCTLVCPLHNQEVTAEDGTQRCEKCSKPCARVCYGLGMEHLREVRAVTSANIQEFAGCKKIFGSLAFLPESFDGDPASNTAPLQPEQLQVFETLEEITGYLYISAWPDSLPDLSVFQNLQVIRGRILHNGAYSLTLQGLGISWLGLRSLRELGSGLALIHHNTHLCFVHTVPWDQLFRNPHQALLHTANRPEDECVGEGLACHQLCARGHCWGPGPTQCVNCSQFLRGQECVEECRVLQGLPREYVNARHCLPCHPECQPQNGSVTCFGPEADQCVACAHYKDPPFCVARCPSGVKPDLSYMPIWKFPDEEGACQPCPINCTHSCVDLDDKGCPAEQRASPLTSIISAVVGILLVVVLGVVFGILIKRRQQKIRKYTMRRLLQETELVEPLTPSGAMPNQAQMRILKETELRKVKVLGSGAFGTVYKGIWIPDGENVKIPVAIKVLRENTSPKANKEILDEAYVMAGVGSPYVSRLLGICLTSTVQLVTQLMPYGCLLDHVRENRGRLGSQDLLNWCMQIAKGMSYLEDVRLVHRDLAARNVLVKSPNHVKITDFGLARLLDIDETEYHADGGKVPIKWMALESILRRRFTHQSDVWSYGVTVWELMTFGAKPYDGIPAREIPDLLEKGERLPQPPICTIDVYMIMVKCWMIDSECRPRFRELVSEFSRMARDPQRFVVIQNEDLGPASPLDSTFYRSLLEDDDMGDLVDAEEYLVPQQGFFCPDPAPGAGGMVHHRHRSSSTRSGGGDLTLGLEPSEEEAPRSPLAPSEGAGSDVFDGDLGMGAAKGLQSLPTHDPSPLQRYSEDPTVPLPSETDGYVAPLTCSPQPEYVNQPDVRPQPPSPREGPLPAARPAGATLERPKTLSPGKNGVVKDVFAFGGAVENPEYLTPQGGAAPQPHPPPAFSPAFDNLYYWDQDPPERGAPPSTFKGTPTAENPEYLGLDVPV
Experiment: HER2 signaling (pHER2 Tyr1248/total HER2 MSD) in BT474 cells
Assay type: cell-based
Conditions: 1.5 hr compound, 1% FBS
pEC50: −log10 of the molar value.
Each entry below lists one item and its recorded pEC50 value.

Consider the following illustrative entries.
molecule: C=C(CN1CCc2c(sc3ncnc(Nc4ccc(Oc5ccc(C)nc5)c(C)c4)c23)C1)C(=O)OCC
pEC50: 6.46 to 7.00
--
molecule: Cc1ccc(Oc2ccc(Nc3ncnc4sc5c(c34)CCN(C(=O)/C=C/CN3CCCC(F)(CO)C3)C5)cc2C)cn1 (stereo not shown)
pEC50: > 7.00
--
molecule: CON(C)C/C=C/C(=O)N1CCc2c(sc3ncnc(Nc4ccc(Oc5ccc(C)nc5)c(C)c4)c23)C1
pEC50: 6.00 to 6.46

Moving on to another molecule below.
Query string: What value of pEC50 has been reported for the following molecule? Cc1ccc(Oc2ccc(Nc3ncnc4sc5c(c34)CCN(C(=O)/C=C/CN3CCCC34CCC4)C5)cc2C)cn1
Result string: > 7.00

* * *

Target: EGFR (Homo sapiens, UniProt P00533)
Sequence (P00533 25-1210): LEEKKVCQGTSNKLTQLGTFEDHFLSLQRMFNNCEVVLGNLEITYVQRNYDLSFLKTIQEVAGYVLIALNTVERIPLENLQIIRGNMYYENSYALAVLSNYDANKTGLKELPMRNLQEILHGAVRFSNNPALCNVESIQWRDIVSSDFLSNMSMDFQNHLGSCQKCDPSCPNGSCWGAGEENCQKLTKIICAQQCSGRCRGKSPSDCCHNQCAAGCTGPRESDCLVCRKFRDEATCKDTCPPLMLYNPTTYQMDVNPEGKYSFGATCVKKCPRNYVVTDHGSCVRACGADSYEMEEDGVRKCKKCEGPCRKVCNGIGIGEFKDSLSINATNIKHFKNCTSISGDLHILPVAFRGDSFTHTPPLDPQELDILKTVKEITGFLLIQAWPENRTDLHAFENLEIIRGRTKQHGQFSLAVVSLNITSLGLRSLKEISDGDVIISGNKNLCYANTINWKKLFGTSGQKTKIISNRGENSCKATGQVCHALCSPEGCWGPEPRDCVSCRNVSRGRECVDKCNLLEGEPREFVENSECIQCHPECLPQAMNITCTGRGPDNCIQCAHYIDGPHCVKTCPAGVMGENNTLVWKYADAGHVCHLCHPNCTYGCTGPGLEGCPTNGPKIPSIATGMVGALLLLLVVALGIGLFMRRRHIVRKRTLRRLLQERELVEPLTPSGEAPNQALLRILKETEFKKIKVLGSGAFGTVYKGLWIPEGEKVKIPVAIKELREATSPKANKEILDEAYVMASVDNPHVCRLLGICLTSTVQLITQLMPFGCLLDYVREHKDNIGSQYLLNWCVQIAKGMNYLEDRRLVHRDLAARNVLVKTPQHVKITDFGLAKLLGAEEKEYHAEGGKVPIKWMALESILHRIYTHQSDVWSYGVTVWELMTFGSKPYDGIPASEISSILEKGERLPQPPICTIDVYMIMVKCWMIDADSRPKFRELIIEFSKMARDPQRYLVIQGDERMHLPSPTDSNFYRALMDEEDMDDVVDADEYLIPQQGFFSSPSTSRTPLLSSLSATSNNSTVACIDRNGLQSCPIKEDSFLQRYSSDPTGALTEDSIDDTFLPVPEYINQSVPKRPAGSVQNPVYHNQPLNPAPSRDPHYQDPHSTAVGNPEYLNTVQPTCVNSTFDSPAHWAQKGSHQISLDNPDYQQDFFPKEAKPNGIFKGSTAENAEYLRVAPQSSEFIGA
Assay: EGFR signaling (pEGFR Tyr1068/total EGFR MSD) in A431 cells
Type: cell-based
Parameters: endogenous in cells; host or cells: A431, N87
Conditions: A431 cells; read-out: A431 pEGFR EC50
quantityName: EC50

Consider the following illustrative entries.
compound: Cc1cc(Nc2ncnc3sc4c(c23)CCN(C(=O)/C=C/CN2CC(C)(C)OC(C)(C)C2)C4)ccc1Oc1ccc2ncnn2c1
result: > 10000 nM

compound: Cc1cc(Nc2ncnc3sc4c(c23)CCN(C(=O)/C=C/CN2CC3CCC(C3)C2)C4)ccc1Oc1ccc2ncnn2c1
result: < 100 nM

compound: Cc1cc(Nc2ncnc3sc4c(c23)CCN(C(=O)/C=C/CN2CC3CC(C3)C2)C4)ccc1Oc1ccc2ncnn2c1
result: 100 to 1000 nM

Query string: What value of EC50 has been reported for the following compound? Cc1cc(Nc2ncnc3sc4c(c23)CCN(C(=O)/C=C/CN2CC3C(CO)C3C2)C4)ccc1Oc1ccc2ncnn2c1 (stereo not shown)
Result string: 100 to 1000 nM

Query string: What value of EC50 has been reported for the following compound? Cc1cc(Nc2ncnc3sc4c(c23)CCN(C(=O)/C=C/CN(C)C)C4)ccc1Oc1cccc(B(O)O)c1
Result string: 100 to 1000 nM

Query string: What value of EC50 has been reported for the following compound? Cc1ccc(Oc2ccc(Nc3ncnc4sc5c(c34)CCN(C(=O)/C=C/CN3CCC(O)C3)C5)cc2C)cn1 (stereo not shown)
Result string: 100 to 1000 nM

Query string: What value of EC50 has been reported for the following compound? Cc1ccc(Oc2ccc(Nc3ncnc4sc5c(c34)CCN(C(=O)/C=C/CN3CC4CCC(C4)C3)C5)cc2C)cn1
Result string: < 100 nM

* * *

Each entry below lists one item and its recorded EC50 value.
Target: EGFR (Homo sapiens, UniProt P00533)
Experiment: EGFR signaling (pEGFR Tyr1068/total EGFR MSD) in A431 cells
Assay type: cell-based
Design: endogenous in cells; host or cells: A431, N87
Settings: A431 cells; read-out: A431 pEGFR EC50

Consider the following illustrative entries.
molecule: Cc1ccc(Oc2ccc(Nc3ncnc4sc5c(c34)CCN(C(=O)/C=C/CN(C)C(C)(C)C)C5)cc2C)cn1
result: 100 to 1000 nM
//
molecule: Cc1ccc(Oc2ccc(Nc3ncnc4sc5c(c34)CCN(C(=O)/C=C/CN[C@H]3CCC[C@H](O)C3)C5)cc2C)cn1
result: 100 to 1000 nM
//
molecule: Cc1ccc(Oc2ccc(Nc3ncnc4sc5c(c34)CCN(C(=O)/C=C/CN3CC(C)OC(C)C3C)C5)cc2C)cn1 (stereo not shown)
result: 100 to 1000 nM
//
molecule: Cc1cc(Nc2ncnc3sc4c(c23)CCN(C(=O)/C=C/CN(C)C)C4)ccc1Oc1ccc2[nH]ncc2c1
result: < 100 nM
//
molecule: Cc1ccc(Oc2ccc(Nc3ncnc4sc5c(c34)C(C)CN(C(=O)C=CCN3CCOCC3)C5)cc2C)cn1 (single isomer, unassigned) [Compound 176]
result: 1000 to 10000 nM
//
molecule: Cc1ccc(Oc2ccc(Nc3ncnc4sc5c(c34)CCN(C(=O)/C=C/CN3CC(O)CO3)C5)cc2C)cn1 (stereo not shown)
result: > 10000 nM

Query string: What value of EC50 has been reported for the following molecule? Cc1ccc(Oc2ccc(Nc3ncnc4sc5c(c34)CCN(C(=O)/C=C/CNCCS(C)(=O)=O)C5)cc2C)cn1
Result string: 100 to 1000 nM

Taken from patent US20240391931A1.
